B1: library; numbered along this chain (parent)
chain: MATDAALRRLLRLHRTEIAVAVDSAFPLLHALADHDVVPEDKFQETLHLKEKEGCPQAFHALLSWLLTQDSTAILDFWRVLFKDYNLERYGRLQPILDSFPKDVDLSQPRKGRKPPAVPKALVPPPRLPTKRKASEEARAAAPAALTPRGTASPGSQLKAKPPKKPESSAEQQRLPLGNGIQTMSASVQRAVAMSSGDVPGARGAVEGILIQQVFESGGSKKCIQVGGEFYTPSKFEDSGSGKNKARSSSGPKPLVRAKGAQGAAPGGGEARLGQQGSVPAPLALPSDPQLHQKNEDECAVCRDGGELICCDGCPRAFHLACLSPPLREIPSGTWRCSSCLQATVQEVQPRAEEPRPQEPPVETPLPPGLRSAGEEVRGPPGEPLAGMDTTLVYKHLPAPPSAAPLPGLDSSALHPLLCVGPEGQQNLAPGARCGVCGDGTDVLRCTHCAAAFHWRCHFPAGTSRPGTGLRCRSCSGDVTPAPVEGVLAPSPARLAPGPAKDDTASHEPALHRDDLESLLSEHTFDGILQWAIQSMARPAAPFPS

Variants of: B1
protocol.description: AIRE transcriptional activation functional score (insulin promoter-GFP; nonsense median 0, synonymous median 1) (normalised score); higher = higher AIRE activity (more reporter activation)
particulars: with insulin promoter-GFP reporter in HEK293
Use 0.9 as the dividing line for AIRE transcriptional activation functional score, with the line itself on the 1 side and lower values as 0.

var | class.name
P430R | 0
P252L | 1
E237F | 0
E485K | 0
E522C | 0
E53F | 0
N179G | 1
L308M | 1
A261N | 0
A58H | 0
D4S | 0
P357V | 1
C437P | 0
A73C | 0
S185Q | 0
K83Q | 0
P416R | 0
G240I | 0
D36P | 0
K131P | 0
Q182M | 0
Q290Y | 1
H507M | 1
V118S | 0
Q530K | 0
G333I | 0
K259W | 1
G277F | 1
E522A | 0
D389C | 0
A404S | 1
T183F | 0
A6R | 0
L177Y | 1
L397E | 0
A134M | 0
P326N | 0
L417Q | 1
K83H | 0
T524Y | 1
S402Y | 1
R15P | 0
L11K | 0
P365Y | 1
Q349W | 1
S464E | 1
A31R | 0
P176W | 1
P162M | 0
L320E | 1
G435I | 0
V443M | 1
G435R | 1
D478N | 0
H512W | 1
P200Y | 0
P116S | 1
E167F | 1
L63F | 0
R257D | 1
K102Q | 1
C446Q | 0
E347H | 1
P254H | 1
S332V | 1
Q342P | 0
V123R | 0
G333K | 1
G477E | 0
P200S | 1
L341N | 1
A258T | 1
P430V | 0
G527H | 0
R247W | 0
E207F | 0
A493C | 1
D514P | 0
I181D | 0
F77N | 0
L177M | 1
Q173L | 1
C437S | 0
Y231W | 1
A403D | 0
E270M | 1
M194T | 0

Value source: the supplement of paper PMC12667976
